Entry source: patent US5591762A

Kindly state pIC50 for each of the entries shown.
# Target entity: angiotensin II-receptor (Rattus norvegicus, UniProt P25095)
# Sequence (P25095 1-359): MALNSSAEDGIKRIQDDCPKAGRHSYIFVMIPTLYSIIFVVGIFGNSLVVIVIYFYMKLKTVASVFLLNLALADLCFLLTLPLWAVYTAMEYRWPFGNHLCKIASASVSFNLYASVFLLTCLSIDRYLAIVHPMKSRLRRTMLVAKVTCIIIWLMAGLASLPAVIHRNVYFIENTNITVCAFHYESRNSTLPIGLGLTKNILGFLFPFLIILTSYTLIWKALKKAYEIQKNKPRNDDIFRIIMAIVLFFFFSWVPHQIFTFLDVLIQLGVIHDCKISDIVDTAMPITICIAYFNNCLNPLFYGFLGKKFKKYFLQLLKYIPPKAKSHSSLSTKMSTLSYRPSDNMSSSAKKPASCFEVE
Note on units: pIC50 is unitless, being -log10 of a concentration expressed in mol/L.

Data request: Report pIC50 for CCCc1nc2c(C)cc(-c3cn(C4CCCCCC4)cn3)cc2n1Cc1ccc(-c2ccccc2C(=O)O)cc1 please.
Data returned: 7.82

Data request: Report pIC50 for CCCc1nc2c(C)cc(-c3coc(C)n3)cc2n1Cc1ccc(-c2ccccc2C(=O)O)cc1 please.
Data returned: 7.40

Data request: Report pIC50 for CCCc1nc2c(C)cc(-c3cn(CC(N)=O)cn3)cc2n1Cc1ccc(-c2ccccc2C(=O)O)cc1 please.
Data returned: 8.47

Data request: Report pIC50 for CCCc1nc2c(C)cc(-c3cn(CCCN(C)C)cn3)cc2n1Cc1ccc(-c2ccccc2C(=O)O)cc1 please.
Data returned: 8.89
